Here we list compounds with their recorded Ki when tested on human O-GlcNAcase (Homo sapiens (Human), UniProt O60502).
Sequence (O60502 whole entry): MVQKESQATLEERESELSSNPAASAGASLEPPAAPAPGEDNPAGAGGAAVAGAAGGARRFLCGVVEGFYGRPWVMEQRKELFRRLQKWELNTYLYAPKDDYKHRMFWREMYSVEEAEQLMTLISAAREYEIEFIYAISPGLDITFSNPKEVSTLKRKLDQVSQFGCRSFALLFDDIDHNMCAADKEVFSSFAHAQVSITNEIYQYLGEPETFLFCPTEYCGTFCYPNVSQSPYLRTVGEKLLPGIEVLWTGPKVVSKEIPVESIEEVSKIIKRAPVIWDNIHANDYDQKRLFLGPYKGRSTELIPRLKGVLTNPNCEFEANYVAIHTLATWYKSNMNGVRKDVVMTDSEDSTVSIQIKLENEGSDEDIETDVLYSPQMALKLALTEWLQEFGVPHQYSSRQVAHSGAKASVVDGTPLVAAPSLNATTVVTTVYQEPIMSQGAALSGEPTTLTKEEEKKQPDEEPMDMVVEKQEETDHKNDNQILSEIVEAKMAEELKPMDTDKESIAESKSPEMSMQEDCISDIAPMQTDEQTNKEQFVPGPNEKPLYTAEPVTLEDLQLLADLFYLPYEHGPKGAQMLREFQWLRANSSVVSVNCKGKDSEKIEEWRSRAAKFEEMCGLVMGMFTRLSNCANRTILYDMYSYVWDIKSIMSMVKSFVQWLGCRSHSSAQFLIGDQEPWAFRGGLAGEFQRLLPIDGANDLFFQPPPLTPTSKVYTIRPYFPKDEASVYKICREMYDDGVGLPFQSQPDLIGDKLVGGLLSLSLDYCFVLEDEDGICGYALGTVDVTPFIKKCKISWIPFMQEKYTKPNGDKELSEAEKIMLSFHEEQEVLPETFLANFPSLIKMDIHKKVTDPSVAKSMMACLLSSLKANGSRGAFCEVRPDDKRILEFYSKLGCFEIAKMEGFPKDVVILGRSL
// unit must come after the numeric part

See these solved cases before continuing.
>  <compound>
CNC1=N[C@@H]2[C@H](F)[C@H](O)[C@@H](C(F)F)O[C@@H]2S1 [Example 33]

>  <Ki>
13 nM

$$$$
>  <compound>
CCNC1=N[C@@H]2[C@@H](O)[C@H](O)[C@@H](C(F)F)O[C@@H]2S1 [Example 19]

>  <Ki>
5.7 nM

$$$$
>  <compound>
CNC1=N[C@@H]2[C@@H](F)[C@H](O)[C@@H](CO)O[C@@H]2S1 [Example 9]

>  <Ki>
1.3 nM

$$$$
>  <compound>
CNC1=N[C@@H]2C[C@H](O)[C@@H](C(F)F)O[C@@H]2S1 [Example 27]

>  <Ki>
28 nM

$$$$
>  <compound>
CN(C)C1=N[C@@H]2[C@@H](O)[C@H](O)[C@@H](CO)O[C@@H]2S1 [reference compound]

>  <Ki>
0.3 nM

$$$$
>  <compound>
CCNC1=N[C@@H]2[C@@H](O)[C@H](O)[C@@H](C)O[C@@H]2S1 [Example 1]

>  <Ki>
70 nM

$$$$
>  <compound>
CN(C)C1=N[C@@H]2[C@@H](O)[C@H](O)[C@@H](C(F)F)O[C@@H]2S1 [Example 20]

>  <Ki>
1.4 nM

$$$$
>  <compound>
CCNC1=N[C@@H]2[C@@H](O)[C@@H](O)[C@@H](C(F)F)O[C@@H]2S1 [Example 29]

>  <Ki>
164 nM

$$$$

Field: next compound
Item: CNC1=N[C@@H]2[C@@H](O)[C@H](O)[C@@H](CF)O[C@@H]2S1 [Example 17] Test system: human O-GlcNAcase (Homo sapiens (Human), UniProt O60502) Read-out: Ki Value: ?
0.5 nM
